Biological target: 5-hydroxytryptamine receptor 2A (Homo sapiens)
Sequence (P28223 whole entry): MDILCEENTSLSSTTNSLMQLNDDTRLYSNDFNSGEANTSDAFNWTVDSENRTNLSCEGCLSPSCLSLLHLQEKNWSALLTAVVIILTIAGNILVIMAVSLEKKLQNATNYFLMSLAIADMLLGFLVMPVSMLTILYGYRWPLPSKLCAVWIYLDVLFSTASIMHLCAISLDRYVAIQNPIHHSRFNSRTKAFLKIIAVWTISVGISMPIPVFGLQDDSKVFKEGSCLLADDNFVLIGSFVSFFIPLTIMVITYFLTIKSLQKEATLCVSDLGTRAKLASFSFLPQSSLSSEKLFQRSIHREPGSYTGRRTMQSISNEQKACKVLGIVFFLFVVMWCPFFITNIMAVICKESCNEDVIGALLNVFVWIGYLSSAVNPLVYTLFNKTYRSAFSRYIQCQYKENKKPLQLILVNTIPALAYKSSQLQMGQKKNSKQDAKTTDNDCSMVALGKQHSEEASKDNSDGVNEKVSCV
Under this convention, met denotes Ki strictly below 30 nM and not met denotes Ki at or above 30 nM.

| COMPOUND | ASSIGNED CLASS |
| --- | --- |
| COc1cccc2[nH]cc(C3CC3N)c12 (stereo not drawn) | not met |
| NC1CC1c1c[nH]c2ccccc12 (racemic) | not met |
| N[C@@H]1C[C@H]1c1c[nH]c2ccccc12 | not met |
| N[C@H]1C[C@@H]1c1c[nH]c2ccccc12 | not met |
| CC(CN)c1c[nH]c2ccccc12 (stereo not drawn) | not met |
| NC1CC1c1c[nH]c2ccc(F)cc12 (stereo not drawn) | met |
| COc1ccc2[nH]cc(C(C)CN)c2c1 (stereo not drawn) | met |

---

Biological target: UniProt:P19327
Sequence (P19327 whole entry): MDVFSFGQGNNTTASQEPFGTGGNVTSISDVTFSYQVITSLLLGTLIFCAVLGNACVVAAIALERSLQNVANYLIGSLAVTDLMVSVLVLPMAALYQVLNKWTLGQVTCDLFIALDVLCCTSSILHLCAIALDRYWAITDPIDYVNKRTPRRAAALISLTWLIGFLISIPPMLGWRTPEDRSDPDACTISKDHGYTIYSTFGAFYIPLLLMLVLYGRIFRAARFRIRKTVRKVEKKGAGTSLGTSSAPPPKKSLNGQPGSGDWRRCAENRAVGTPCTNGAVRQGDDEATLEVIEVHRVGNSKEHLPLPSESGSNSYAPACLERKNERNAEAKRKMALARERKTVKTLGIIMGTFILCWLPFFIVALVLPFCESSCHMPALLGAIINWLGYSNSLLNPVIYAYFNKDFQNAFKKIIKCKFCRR
pKi: −log10 of the molar value.

| COMPOUND | pKi |
| --- | --- |
| COc1ccc2[nH]cc(C3CC3N)c2c1 (centres undefined) | 7.40 |
| N[C@@H]1C[C@H]1c1c[nH]c2ccccc12 | 6.59 |
| NC1CC1c1c[nH]c2ccc(F)cc12 (centres undefined) | 6.59 |
| N[C@H]1C[C@@H]1c1c[nH]c2ccccc12 | 6.09 |

---

Biological target: UniProt P28335
Sequence (P28335 whole entry): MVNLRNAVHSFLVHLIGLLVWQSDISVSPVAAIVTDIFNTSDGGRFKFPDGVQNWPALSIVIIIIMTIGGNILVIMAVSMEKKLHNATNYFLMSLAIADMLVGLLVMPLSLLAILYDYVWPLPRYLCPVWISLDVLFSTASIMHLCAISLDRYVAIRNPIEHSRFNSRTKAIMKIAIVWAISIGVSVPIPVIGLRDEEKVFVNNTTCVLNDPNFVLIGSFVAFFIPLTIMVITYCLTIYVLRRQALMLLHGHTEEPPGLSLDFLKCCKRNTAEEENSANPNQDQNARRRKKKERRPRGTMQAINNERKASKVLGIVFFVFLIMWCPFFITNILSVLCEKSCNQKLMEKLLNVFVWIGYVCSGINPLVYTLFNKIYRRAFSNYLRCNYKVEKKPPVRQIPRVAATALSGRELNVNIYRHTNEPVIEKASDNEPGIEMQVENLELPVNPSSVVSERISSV
pKi: −log10 of the molar value.
# Lookup of reported pKi keyed by entry
QUANTITY MEASURED: pKi

| MOLECULE | RESULT VALUE |
| --- | --- |
| CC(CN)c1c[nH]c2ccccc12 (stereo not drawn) | 8.03 |
| COc1ccc2[nH]cc(C(C)CN)c2c1 (stereo not drawn) | 9.00 |
| COc1ccc2[nH]cc(C3CC3N)c2c1 (stereo not drawn) | 7.75 |
| N[C@H]1C[C@@H]1c1c[nH]c2ccccc12 | 7.67 |
| N[C@@H]1C[C@H]1c1c[nH]c2ccccc12 | 7.36 |
| COc1cccc2[nH]cc(C3CC3N)c12 (stereo not drawn) | 7.93 |
| NC1CC1c1c[nH]c2ccccc12 (racemic) | 7.52 |
| NC1CC1c1c[nH]c2ccc(F)cc12 (stereo not drawn) | 8.72 |

---

# Lookup of reported pKi keyed by entry
Molecular target: 5-hydroxytryptamine receptor 2B (Homo sapiens, UniProt P41595)
Sequence (P41595 whole entry): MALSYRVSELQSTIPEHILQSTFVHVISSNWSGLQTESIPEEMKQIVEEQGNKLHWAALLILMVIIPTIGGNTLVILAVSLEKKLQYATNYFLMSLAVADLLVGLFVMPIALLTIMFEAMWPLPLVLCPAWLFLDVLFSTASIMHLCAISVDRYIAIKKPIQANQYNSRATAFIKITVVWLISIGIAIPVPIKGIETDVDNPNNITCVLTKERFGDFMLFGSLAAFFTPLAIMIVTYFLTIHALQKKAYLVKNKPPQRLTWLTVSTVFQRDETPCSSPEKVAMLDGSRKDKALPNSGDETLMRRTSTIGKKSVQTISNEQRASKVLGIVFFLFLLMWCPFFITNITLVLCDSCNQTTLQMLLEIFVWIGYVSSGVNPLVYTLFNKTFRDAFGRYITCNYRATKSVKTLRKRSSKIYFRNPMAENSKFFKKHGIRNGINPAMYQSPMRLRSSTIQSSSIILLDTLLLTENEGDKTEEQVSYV
pKi: −log10 of the molar value.

| COMPOUND | TGT | pKi |
| --- | --- | --- |
| NC1CC1c1c[nH]c2ccc(F)cc12 (stereo not drawn) | 5-hydroxytryptamine receptor 2B (Homo sapiens, UniProt P41595) | 8.24 |
| COc1ccc2[nH]cc(C3CC3N)c2c1 (stereo not drawn) | 5-hydroxytryptamine receptor 2B (Homo sapiens, UniProt P41595) | 7.42 |
| N[C@@H]1C[C@H]1c1c[nH]c2ccccc12 | 5-hydroxytryptamine receptor 2B (Homo sapiens, UniProt P41595) | 7.23 |
| COc1cccc2[nH]cc(C3CC3N)c12 (stereo not drawn) | 5-hydroxytryptamine receptor 2B (Homo sapiens, UniProt P41595) | 7.19 |
| COc1ccc2[nH]cc(C(C)CN)c2c1 (stereo not drawn) | 5-hydroxytryptamine receptor 2B (Homo sapiens, UniProt P41595) | 8.08 |
| NC1CC1c1c[nH]c2ccccc12 (racemic) | 5-hydroxytryptamine receptor 2B (Homo sapiens, UniProt P41595) | 7.23 |
| CC(CN)c1c[nH]c2ccccc12 (stereo not drawn) | 5-hydroxytryptamine receptor 2B (Homo sapiens, UniProt P41595) | 7.06 |
| N[C@H]1C[C@@H]1c1c[nH]c2ccccc12 | 5-hydroxytryptamine receptor 2B (Homo sapiens, UniProt P41595) | 7.03 |
